molecular target: AVPR1A (Homo sapiens, UniProt P37288); experiment: cell-based
Sequence (P37288 whole entry): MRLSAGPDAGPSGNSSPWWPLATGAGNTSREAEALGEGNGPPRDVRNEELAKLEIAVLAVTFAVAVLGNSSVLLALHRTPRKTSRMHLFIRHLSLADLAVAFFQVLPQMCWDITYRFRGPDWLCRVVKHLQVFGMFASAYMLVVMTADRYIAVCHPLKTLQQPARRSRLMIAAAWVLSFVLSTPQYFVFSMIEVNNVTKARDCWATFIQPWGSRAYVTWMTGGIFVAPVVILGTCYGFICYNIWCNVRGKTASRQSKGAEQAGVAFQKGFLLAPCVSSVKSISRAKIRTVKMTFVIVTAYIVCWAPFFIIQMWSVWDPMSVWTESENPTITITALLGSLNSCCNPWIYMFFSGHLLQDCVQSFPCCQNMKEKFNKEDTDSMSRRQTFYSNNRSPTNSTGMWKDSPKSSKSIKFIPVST
Listing: EC50 of selected molecules

structure_as_smiles: CN(C)CCc1c[nH]c2cccc(OC(=O)OCc3ccccc3)c12
EC50: > 100 µM
//
structure_as_smiles: CN(C)CCc1c[nH]c2cccc(OP(=O)(Oc3ccccc3)Oc3ccccc3)c12
EC50: > 100 µM

* * *

biological target: DRD2S (Homo sapiens); experiment: cell-based; conditions: DRD2S, GPCR, AGN (agonist); read-out: EC50
Sequence (P14416 1-414 isoform P14416-2): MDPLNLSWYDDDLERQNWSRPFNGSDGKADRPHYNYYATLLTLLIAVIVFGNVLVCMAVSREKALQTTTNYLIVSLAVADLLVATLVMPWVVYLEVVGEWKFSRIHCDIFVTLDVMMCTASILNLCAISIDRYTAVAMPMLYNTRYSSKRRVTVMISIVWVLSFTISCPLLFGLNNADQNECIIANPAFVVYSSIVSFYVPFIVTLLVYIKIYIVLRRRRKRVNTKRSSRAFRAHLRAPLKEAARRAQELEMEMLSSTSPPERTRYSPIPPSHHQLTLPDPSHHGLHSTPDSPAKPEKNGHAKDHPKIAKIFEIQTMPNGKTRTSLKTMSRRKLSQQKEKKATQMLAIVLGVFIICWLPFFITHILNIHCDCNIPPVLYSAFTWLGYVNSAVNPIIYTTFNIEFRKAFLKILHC
Mark criterion met only when EC50 stays strictly below 20 µM. Values equal to the cut-off are criterion not met.

molecule: CC(C)OC(=O)OCOc1cccc2c1c(CCN(C)C)cn2COC(=O)OC(C)C [D(XIII)]
class_label: criterion not met
//
molecule: CCCCC(=O)OCOc1cccc2[nH]cc(CCN(C)C)c12 [D(III)]
class_label: criterion met
//
molecule: CN(C)Cc1c[nH]c2cccc(O[Si](C)(C)C(C)(C)C)c12 [A(IV)]
class_label: criterion met
//
molecule: CN(C)CCc1c[nH]c2cccc(OC(=O)OCC3CC3)c12 [B(III)]
class_label: criterion met
//
molecule: CC(C)[Si](Oc1cccc2[nH]cc(CN(C)C)c12)(C(C)C)C(C)C [A(V)]
class_label: criterion not met
//
molecule: CCCC(=O)OCOc1cccc2[nH]cc(CCN(C)C)c12 [D(IV)]
class_label: criterion not met
